test summary: method code SF-AS, from DOI: 10.1016/0014-5793(90)81139-f, PMID: 2387393
conditions used: pH 2.0
result type: logD

Sample records with logD:
                   compound  value
0    COC1=CC(=O)C=C(OC)C1=O  -0.05
1       Cc1cc(O)c(C)c(C)c1O   1.69
2            COc1cc(O)ccc1O   0.47
3         Cc1cc(O)cc(Br)c1O   1.38
4  COc1c(O)c(C)c(C)c(O)c1OC    1.6

1: CC1=CC(=O)C=C(Br)C1=O
2: COC1=CC(=O)C=CC1=O
input: # return whichever of 1 and 2 has the smaller logD Choose, then provide that item's label.
output: 2
(2: 0.27, 1: 1.21)

---

test summary: method code SF-AS, from DOI: 10.1016/0014-5793(90)81139-f, PMID: 2387393
conditions used: pH 2.0
result type: logD

Check out these entries, answers already filled in.
                compound  value
0  COc1c(O)cc(C)c(O)c1OC   1.02
1      CC1=CC(=O)C=CC1=O   0.67

P: COc1c(O)c(OC)c(OC)c(O)c1OC
Q: COc1cc(O)cc(OC)c1O
input: Given P and Q , report the one with the higher recorded logD. // caller expects the label of the chosen entry
output: P
